- Tested Target: Flt3 (h) (Homo sapiens)
- Test Method Notes: Kinase Profiling Assay
- Type: biochemical
- Recorded Conditions: 100 μM
Provide the recorded % activity for the entries that follow.
State the answer as a number, implicitly in %.

Let me know recorded % activity for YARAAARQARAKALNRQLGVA (Mammalian) [MMI-0200] , thanks.
99

For the sequence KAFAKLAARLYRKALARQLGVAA [MMI-0400] , give its reported % activity.
18

Quote % activity reported for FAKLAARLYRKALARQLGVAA [MMI-0300] please.
84

Give me measured % activity, please, for this sequence: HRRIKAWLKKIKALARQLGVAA (Mammalian) [MMI-0500]
17

====

Exercise: for every item that follows, state its recorded % activity.
- Tested Target: Pim-2 (h) (Homo sapiens, UniProt Q9P1W9)
- Construct: purchased Millipore
- Sequence (Q9P1W9 whole entry): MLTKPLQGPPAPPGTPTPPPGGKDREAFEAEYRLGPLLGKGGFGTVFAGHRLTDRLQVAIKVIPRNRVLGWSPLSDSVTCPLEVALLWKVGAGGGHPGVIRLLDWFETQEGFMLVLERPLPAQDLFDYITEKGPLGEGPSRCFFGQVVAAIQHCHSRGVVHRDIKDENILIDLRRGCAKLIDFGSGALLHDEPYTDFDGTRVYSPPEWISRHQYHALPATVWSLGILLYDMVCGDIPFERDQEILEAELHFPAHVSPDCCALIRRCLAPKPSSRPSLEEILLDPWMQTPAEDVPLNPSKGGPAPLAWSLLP
- Test Method Notes: Kinase Profiling Assay
- Format: biochemical
- Recorded Conditions: 100 μM
- Method: Every kinase activity measurement was conducted in duplicate. Specifically, in these assays, a positively charged substrate is phosphorylated with a radiolabeled phosphate group from an ATP if the kinase is not inhibited by an inhibitor peptide. The positively charged substrate then is attracted to a negatively charged filter membrane, quantified with a scintillation counter, and compared to a 100% activity control. […]
Field format: number, assumed %, no unit text.

Find the measured % activity of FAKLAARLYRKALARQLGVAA [MMI-0300] and report it.
76

For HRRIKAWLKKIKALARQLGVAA (Mammalian) [MMI-0500] , write its % activity.
46

Indicate the recorded % activity value for this sequence: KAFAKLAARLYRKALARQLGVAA [MMI-0400]
92

Find the measured % activity of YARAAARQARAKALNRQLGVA (Mammalian) [MMI-0200] and report it.
74

====

For each entry below, report its % activity value.
- Tested Target: PRK2 (h) (Homo sapiens)
- Sequence (Q16513 whole entry): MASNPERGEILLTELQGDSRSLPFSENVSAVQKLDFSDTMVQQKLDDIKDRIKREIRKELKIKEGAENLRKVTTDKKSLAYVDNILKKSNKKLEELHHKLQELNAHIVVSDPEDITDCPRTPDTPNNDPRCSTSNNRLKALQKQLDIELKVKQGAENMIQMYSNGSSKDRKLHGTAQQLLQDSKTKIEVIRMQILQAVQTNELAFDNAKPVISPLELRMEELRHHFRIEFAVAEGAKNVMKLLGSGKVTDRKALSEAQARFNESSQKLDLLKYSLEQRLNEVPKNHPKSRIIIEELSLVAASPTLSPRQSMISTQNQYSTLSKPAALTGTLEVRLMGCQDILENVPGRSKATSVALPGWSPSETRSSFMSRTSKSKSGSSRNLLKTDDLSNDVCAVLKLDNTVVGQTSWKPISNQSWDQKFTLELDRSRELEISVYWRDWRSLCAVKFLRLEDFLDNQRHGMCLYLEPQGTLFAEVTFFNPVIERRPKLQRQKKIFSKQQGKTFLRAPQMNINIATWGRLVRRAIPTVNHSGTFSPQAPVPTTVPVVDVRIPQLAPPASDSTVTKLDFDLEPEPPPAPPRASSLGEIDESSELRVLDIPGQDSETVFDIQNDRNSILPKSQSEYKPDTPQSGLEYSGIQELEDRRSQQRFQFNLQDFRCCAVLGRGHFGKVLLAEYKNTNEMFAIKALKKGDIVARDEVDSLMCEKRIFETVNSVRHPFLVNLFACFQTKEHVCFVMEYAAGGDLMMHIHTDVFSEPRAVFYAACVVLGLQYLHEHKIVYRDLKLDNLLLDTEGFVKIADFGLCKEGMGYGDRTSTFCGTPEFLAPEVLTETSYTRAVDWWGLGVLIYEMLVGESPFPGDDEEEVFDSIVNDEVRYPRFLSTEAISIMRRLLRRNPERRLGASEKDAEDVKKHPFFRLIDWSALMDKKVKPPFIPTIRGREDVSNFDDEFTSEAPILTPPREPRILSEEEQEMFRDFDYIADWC
- Test Method Notes: Kinase Profiling Assay
- Assay type: biochemical
- Recorded Conditions: 100 μM
Give your result in % as a bare value.

Please supply the value of reported % activity for the item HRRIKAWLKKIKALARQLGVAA (Mammalian) [MMI-0500]
7

Indicate its recorded % activity; the sequence in question is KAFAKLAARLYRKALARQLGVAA [MMI-0400]
27

Write down % activity measured for item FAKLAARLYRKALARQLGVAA [MMI-0300]
33

Quick one: give measured % activity for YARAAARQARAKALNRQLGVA (Mammalian) [MMI-0200]
74

====

- Tested Target: PKD2 (h) (Homo sapiens, UniProt Q9BZL6)
- Sequence (Q9BZL6 1-878): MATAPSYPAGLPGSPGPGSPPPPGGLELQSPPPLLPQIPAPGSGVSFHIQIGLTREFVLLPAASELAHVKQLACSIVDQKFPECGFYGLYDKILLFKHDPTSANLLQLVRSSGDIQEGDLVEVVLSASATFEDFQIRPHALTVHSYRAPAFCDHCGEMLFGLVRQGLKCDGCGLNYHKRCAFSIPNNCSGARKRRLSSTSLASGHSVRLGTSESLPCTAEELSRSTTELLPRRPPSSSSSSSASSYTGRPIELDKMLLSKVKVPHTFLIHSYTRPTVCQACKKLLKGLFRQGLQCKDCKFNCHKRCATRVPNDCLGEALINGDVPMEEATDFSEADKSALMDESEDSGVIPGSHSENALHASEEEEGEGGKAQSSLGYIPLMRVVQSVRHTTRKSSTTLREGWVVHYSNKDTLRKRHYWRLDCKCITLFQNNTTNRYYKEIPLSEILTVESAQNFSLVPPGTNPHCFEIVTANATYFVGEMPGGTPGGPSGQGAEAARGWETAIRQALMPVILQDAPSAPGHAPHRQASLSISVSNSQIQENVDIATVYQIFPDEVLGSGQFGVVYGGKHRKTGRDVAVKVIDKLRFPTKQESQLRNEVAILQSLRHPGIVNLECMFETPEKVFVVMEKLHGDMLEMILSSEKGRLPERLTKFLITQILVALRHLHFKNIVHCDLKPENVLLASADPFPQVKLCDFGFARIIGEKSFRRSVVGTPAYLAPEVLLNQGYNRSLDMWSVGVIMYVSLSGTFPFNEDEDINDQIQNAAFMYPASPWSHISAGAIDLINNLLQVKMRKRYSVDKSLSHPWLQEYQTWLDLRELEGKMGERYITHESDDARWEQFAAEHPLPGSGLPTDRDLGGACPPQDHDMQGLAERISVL
- Test Method Notes: Kinase Profiling Assay
- Assay type: biochemical
- Recorded Conditions: 100 μM
- Method: Every kinase activity measurement was conducted in duplicate. Specifically, in these assays, a positively charged substrate is phosphorylated with a radiolabeled phosphate group from an ATP if the kinase is not inhibited by an inhibitor peptide. The positively charged substrate then is attracted to a negatively charged filter membrane, quantified with a scintillation counter, and compared to a 100% activity control. […]
Reported Property: % activity (%)
Give just the number in %; leave the unit off.

Specify % activity for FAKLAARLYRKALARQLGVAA [MMI-0300] and stop.
33

Read off the recorded % activity for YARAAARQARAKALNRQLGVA (Mammalian) [MMI-0200]
78

Find the measured % activity of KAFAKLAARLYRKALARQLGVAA [MMI-0400] and report it.
25

Tell me its % activity given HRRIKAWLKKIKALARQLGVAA (Mammalian) [MMI-0500] as the entry.
10

====

- Tested Target: PKCτ (h) (Homo sapiens, UniProt P41743)
- Sequence (P41743 1-596): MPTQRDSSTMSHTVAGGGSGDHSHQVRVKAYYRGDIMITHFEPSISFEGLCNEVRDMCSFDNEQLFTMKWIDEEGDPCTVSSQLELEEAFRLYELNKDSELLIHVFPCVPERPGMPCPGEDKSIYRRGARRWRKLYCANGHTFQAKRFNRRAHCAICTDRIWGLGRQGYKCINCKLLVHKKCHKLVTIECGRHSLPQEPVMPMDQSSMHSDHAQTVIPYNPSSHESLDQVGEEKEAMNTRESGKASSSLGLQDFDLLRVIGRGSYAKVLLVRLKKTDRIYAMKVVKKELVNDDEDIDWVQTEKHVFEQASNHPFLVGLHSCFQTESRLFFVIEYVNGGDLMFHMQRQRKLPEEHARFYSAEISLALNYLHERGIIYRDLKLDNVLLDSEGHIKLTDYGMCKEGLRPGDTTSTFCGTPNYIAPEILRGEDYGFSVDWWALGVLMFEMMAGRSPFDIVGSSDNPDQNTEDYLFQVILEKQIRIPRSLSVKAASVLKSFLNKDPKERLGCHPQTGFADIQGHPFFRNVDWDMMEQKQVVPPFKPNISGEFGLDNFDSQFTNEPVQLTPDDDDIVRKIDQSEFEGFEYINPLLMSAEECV
- Test Method Notes: Kinase Profiling Assay
- Format: biochemical
- Recorded Conditions: 100 μM
Reported Property: % activity (%)
Give your result in % as a bare value.

Kindly indicate its recorded % activity. Item: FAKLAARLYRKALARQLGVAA [MMI-0300]
68

Look up and report measured % activity for this entry: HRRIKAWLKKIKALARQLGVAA (Mammalian) [MMI-0500]
7

Give recorded % activity. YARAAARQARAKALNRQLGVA (Mammalian) [MMI-0200]
97

State, in one line, measured % activity of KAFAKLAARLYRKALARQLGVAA [MMI-0400]
46

====

- Tested Target: CDK5/p35 (h) (Homo sapiens, UniProt Q00535)
- Construct: purchased Millipore
- Sequence (Q00535 whole entry): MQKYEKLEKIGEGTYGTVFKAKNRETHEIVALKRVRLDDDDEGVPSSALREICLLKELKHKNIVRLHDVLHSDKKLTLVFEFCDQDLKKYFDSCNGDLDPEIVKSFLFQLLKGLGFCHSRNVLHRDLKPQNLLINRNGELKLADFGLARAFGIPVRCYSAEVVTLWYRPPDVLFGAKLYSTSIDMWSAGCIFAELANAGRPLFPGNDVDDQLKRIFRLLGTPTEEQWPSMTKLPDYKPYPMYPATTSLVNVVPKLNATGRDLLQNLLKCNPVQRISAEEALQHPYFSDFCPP
- Sequence (Q15078 2-307 partner limits assumed): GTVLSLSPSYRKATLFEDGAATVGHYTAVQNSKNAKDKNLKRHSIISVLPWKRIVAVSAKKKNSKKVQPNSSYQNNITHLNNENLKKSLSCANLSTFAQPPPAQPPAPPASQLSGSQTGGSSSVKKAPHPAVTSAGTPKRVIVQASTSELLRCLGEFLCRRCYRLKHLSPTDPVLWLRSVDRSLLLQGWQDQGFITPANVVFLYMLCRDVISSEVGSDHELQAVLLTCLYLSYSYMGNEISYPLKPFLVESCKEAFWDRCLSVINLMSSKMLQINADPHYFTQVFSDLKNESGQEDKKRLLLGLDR
- Test Method Notes: Kinase Profiling Assay
- Assay type: biochemical
- Recorded Conditions: 100 μM
Would you mind telling me the reported % activity of each entry?
Field format: number, assumed %, no unit text.

Item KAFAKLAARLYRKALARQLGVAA [MMI-0400] : provide % activity
76

Please supply the value of reported % activity for the item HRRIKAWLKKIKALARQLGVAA (Mammalian) [MMI-0500]
59

Return reported % activity. Input sequence: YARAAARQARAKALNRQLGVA (Mammalian) [MMI-0200]
92

Kindly indicate its recorded % activity. Item: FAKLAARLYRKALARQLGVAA [MMI-0300]
79

====

Would you kindly list % activity for each of these sequences?
- Tested Target: Fes (h) (Homo sapiens, UniProt P07332)
- Sequence (P07332 whole entry): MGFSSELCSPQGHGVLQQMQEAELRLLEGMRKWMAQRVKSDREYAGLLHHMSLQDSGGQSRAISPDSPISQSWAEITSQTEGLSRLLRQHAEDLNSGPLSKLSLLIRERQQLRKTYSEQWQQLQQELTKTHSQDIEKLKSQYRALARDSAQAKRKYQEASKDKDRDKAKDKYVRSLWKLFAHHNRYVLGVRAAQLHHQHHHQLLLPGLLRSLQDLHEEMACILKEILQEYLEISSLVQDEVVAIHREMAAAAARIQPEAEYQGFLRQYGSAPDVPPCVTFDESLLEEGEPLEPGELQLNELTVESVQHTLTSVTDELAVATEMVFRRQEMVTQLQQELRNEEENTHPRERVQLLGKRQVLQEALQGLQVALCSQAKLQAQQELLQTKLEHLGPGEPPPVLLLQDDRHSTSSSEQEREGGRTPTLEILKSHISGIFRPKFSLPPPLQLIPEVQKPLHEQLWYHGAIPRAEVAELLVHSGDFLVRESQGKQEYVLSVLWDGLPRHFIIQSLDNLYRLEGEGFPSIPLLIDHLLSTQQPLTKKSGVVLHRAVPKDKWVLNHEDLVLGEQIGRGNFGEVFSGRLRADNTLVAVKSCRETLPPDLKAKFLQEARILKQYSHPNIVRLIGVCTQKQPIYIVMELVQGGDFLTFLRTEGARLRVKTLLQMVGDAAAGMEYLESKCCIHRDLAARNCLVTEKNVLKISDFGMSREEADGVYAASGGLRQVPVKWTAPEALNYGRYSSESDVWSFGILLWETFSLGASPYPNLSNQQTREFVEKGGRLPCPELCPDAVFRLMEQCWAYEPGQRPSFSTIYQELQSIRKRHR
- Test Method Notes: Kinase Profiling Assay
- Assay type: biochemical
- Recorded Conditions: 100 μM
Write it as a number; the unit % goes unstated.

Name the recorded % activity of the sequence listed here: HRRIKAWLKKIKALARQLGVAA (Mammalian) [MMI-0500]
23

Give the reported % activity for this sequence. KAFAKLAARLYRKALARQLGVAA [MMI-0400]
16

Retrieve % activity measured for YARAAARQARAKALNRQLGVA (Mammalian) [MMI-0200] and print it.
74

# return recorded % activity for entry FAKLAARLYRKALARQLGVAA [MMI-0300]
20

====

- Tested Target: IR (h) (Homo sapiens)
- Construct: purchased Millipore
- Test Method Notes: Kinase Profiling Assay
- Type: biochemical
- Recorded Conditions: 100 μM
Reported Property: % activity (%)
Give your result in % as a bare value.

Let me know recorded % activity for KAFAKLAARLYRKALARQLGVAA [MMI-0400] , thanks.
85

Find the measured % activity of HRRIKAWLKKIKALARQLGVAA (Mammalian) [MMI-0500] and report it.
95

Report measured % activity; entry is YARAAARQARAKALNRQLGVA (Mammalian) [MMI-0200]
90

Entry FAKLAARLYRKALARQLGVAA [MMI-0300] needs its % activity filled in; supply it.
96
